# system-name: T1, IL-18 binding protein (IL-18BP) (UniProt O95998 31-194)
# T1 sequence (looked up): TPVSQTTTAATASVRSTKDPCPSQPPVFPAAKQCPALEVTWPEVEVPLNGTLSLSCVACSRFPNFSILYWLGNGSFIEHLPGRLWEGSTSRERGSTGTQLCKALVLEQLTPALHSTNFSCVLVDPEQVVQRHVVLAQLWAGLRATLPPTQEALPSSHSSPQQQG
# procedure-details: cell-based or functional assay
experimental-readout: Ratio (-BP/+BP), DF-1000005

Use the examples below as a reference point.
IL-18 variant K53T, D54H, S55V, T63A, N91K (ligand) YFGKLESKLSVIRNLNDQVLFIDQGNRPLFEDMTDSDMRDNAPRTIFIISMYTHVQPRGMAVAISVKSEKISTLSSENKIISFKEMNPPDKIKDTKSDIIFFQRSVPGHDNKMQFESSSYEGYFLASEKERDLFKLILKKEDELGDRSIMFTVQNED = 1.18
IL-18 variant G3L, E6Q, T63H, N91M, R104H (ligand) YFLKLQSKLSVIRNLNDQVLFIDQGNRPLFEDMTDSDMRDNAPRTIFIISMYKDSQPRGMAVHISVKSEKISTLSSENKIISFKEMNPPDMIKDTKSDIIFFQHSVPGHDNKMQFESSSYEGYFLASEKERDLFKLILKKEDELGDRSIMFTVQNED = 2.02
IL-18 variant G3S, E6Q, K53N, D54T, S55N, T63A, I80T, N91S (ligand) YFSKLQSKLSVIRNLNDQVLFIDQGNRPLFEDMTDSDMRDNAPRTIFIISMYNTNQPRGMAVAISVKSEKISTLSSENKTISFKEMNPPDSIKDTKSDIIFFQRSVPGHDNKMQFESSSYEGYFLASEKERDLFKLILKKEDELGDRSIMFTVQNED = 1.05
IL-18 variant G3E, E6G, N91M, R104A (ligand) YFEKLGSKLSVIRNLNDQVLFIDQGNRPLFEDMTDSDMRDNAPRTIFIISMYKDSQPRGMAVTISVKSEKISTLSSENKIISFKEMNPPDMIKDTKSDIIFFQASVPGHDNKMQFESSSYEGYFLASEKERDLFKLILKKEDELGDRSIMFTVQNED = 1.06

Sure, the documented Ratio (-BP/+BP), DF-1000005 for IL-18 variant G3E, E6H, R27S, D54A, S55T, T63S, N91F, R104S (ligand) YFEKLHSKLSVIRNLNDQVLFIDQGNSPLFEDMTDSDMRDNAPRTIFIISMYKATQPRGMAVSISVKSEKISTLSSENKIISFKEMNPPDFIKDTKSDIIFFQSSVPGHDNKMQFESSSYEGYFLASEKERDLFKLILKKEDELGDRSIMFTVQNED is 1.16
